- EXPERIMENTAL SYSTEM: BR P.1 variant RBD (R319-F541 with K417T, E484K, N501Y), C-terminal 6-His (SARS-CoV-2, UniProt P0DTC2 319-541)
- METHOD SUMMARY: lateral flow NC50, RBD-AuNP vs immobilised ACE2
TEST READOUT: IC50

Some entries whose results are on file:
1035224 (antibody, V domains shown) VH: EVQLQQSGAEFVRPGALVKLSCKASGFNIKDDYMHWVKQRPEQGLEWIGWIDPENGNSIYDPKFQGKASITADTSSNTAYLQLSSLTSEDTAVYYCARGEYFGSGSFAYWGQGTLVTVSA VL: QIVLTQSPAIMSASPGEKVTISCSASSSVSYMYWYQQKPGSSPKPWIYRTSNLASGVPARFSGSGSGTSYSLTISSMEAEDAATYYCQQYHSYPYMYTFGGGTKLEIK = 1.11 µg/mL
1035762 (antibody, V domains shown) VH: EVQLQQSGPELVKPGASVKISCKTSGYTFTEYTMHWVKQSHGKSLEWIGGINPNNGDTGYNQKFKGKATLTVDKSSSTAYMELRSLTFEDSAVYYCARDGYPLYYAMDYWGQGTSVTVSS VL: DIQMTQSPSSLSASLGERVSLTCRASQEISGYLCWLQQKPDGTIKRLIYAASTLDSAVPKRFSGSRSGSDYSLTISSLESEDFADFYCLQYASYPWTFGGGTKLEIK = 0.69 µg/mL
1035753 (antibody, V domains shown) VH: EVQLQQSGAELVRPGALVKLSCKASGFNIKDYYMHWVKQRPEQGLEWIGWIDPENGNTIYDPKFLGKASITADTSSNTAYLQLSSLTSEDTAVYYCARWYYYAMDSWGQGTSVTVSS VL: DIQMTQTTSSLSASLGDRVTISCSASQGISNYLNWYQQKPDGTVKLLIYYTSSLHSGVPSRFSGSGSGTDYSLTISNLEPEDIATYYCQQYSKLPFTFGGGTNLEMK = 2.21 µg/mL
1035419 (antibody, V domains shown) VH: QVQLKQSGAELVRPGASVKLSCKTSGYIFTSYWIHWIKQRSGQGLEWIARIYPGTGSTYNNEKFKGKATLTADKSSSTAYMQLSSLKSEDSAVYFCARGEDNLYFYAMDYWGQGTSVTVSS VL: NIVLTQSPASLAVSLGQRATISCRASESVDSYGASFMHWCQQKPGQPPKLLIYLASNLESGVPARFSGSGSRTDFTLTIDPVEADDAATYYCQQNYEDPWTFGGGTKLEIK = 44.8 µg/mL
1035740 (antibody, V domains shown) VH: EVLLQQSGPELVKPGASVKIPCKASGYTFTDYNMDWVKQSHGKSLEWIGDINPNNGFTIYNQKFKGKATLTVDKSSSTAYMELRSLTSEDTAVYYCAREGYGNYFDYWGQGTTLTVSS VL: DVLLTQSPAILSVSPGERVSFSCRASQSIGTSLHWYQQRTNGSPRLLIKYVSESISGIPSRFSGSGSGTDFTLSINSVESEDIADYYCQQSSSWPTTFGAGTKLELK = 1.4 µg/mL

Shifting focus to the binder that follows.
IN: Return the recorded IC50 value; entry: 1035709 (antibody, V domains shown) VH: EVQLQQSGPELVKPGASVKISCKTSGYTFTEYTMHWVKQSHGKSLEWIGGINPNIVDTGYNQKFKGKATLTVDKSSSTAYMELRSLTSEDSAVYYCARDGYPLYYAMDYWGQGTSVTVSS VL: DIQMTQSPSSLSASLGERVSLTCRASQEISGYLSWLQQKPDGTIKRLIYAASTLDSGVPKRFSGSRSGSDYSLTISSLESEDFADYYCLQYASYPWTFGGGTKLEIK
OUT: 0.7 µg/mL
